Assay: protein stability index of a GFP-peptide fusion (yeast GPS) (PSI 1-4); higher = more stable; sorted into four equal gates, so the index is relative within each strain
Details: san1∆
Label satisfied when protein stability index >= 3; otherwise not satisfied.

ELTIIKNPRVTKEYLVQ [CSN9] = satisfied

(Q) Hi, just wondering whether QPSDVMFNDLNSMDISM [MED2] shows protein stability index of 3 or higher.
(A) satisfied

(Q) Please give the result for LIEPLPTESYLQYIIHD [BRR2] too.
(A) not satisfied

(Q) Queued: FNQFVDYTLQDIICEDS [RPB2]
(A) not satisfied

(Q) Note, next up: LEDQQRQQKLLLETKLR [SWI1]
(A) satisfied

====

Please respond with reported protein stability index for every item in the list.
Experiment: protein stability index of a GFP-peptide fusion (yeast GPS) (PSI 1-4); higher = more stable; sorted into four equal gates, so the index is relative within each strain
Conditions: san1∆
Answers are plain numbers.

Some sequences with recorded protein stability index:
IYLSRFLIKASVREINL [SSN8] = 2.04
DQFHRDTISAITHQLNN [RPC25] = 1.84
IDFFKTDDSFEDKVFAS [BRN1] = 3

Okay, here is my list. What is protein stability index for each of these?
1. ERVSPTDIEEGMRVGVD [RPT1]
2. QIFCVFSGKGVHKLRHY [GRR1]
3. AGGAADCQFWETWLGSQ [PRE2]
4. AQGLLHLGKGTMTMDVF [RPN1]
5. QLLNGQKIVVVRAEELN [RPL16A]
6. TPEKDLFIGLFTRPLFV [YCS4]
7. ELENNEFTENELNVDSM [ITC1]
8. EENSSSNGNNLPLNKPR [RGR1]

(A)
1. 2.83
2. 3.09
3. 2.97
4. 2.15
5. 1.24
6. 1.96
7. 3.33
8. 3.2

For every record below, what is its protein stability index?
1. GEEDADEEETAEGQTNS [RPN1]
2. TITTILILGLNTSIAQF [YML103C/NUP188]
3. DKLKDIVGQTSRTVTPA [ITC1]
4. RSPRVVTNALDNIDEKV [NUT1]
5. TQVRVEFLEDTSRTIVR [RPS28A]
6. RAKSSSHLFNEYSYVDS [RPN4]

(A)
1: 3.01; 2: 2.32; 3: 3.19; 4: 2.77; 5: 2.91; 6: 3.25

====

Please provide measured protein stability index for the entries that follow.
Assay: protein stability index of a GFP-peptide fusion (yeast GPS) (PSI 1-4); higher = more stable; sorted into four equal gates, so the index is relative within each strain
Conditions: ubr1∆
Answers are plain numbers.

YNMYDAYGNWFNGLKPL [PRP8] = 3.13

Quick batch: protein stability index for everything below.
1. KKQKLIEEQDKKVQALQ [ITC1]
2. EVTEGQAEATEWAEENA [RPS0B]
3. LNVVLDDAMEINGEDPA [SMX2]
4. FEETKLSTTPTKSNRRV [SIR4]
5. ISFAIYSALNSTYLPKL [RRP42]

(A)
1: 2.82; 2: 2.44; 3: 3.2; 4: 2.78; 5: 2.34

====

Test: protein stability index of a GFP-peptide fusion (yeast GPS) (PSI 1-4); higher = more stable; sorted into four equal gates, so the index is relative within each strain
Settings: pdr5∆
endpoint: protein stability index
Give bare numbers.

ALDTVTNVLNFIKLQKI [FAS1] = 2.04
DNLLLNLEQINEDLEDG [REC8] = 2.67
DRHIGCAMSGLTADARS [PUP2] = 3.08

Give me protein stability index for each of these sequences, listed below.
1. KKKKKGSNQKPKYEPPV [RPT2]
2. YKAQADTFYMNVESVGS [RPB3]
3. TRTIKQNNFHVLIDLLN [RGR1]

(A)
1. 2.96
2. 2.34
3. 1.62

For the 8 sequences below, give their protein stability index values.
1. TELSNKETTIEKLSSEI [YIL149C/MLP2]
2. ESNKRYRFFKKISEDPV [SNF12]
3. VSTAKFSGKYLKYLTKK [RPL22A]
4. GTFKSTLDREYITLKAT [QCR2]
5. RAPELLLGARHYTPAVD [SSN3]
6. EDYPMSSEIKIYYNELQ [SIR4]
7. EQHEEKAAEGEEKEEEN [QCR6]
8. SSNPLGITGNLDRIPMH [COB]

(A)
2.96
2.97
3.29
1.44
1.08
3.16
2.92
2.52

Quick one: give me protein stability index for each item below, same order please.
1. VDKELLEPGCSVLLHHK [RPT2]
2. DWFTYSYFYRRIHVNPS [BRR2]
3. EESWEKVVEFAITHMID [SCL1]
4. TKQRLDAYYDLELRNSV [PRP8]
5. VTRIINSSEIQSAIRPA [RPL4A]
6. MDFLNSMENTPKVPVSA [GAL11]
7. IHQNAGRLLRAMFEICL [BRR2]

(A)
2.8
1.28
2.92
2.93
2.54
2.45
1.75

====

I'd be grateful if you could share measured protein stability index for these entries.
Assay: protein stability index of a GFP-peptide fusion (yeast GPS) (PSI 1-4); higher = more stable; sorted into four equal gates, so the index is relative within each strain
Conditions: ubr1∆
One number for each entry.

See these solved cases before continuing.
RKRVYNIKFLSKLEGTI [ESC2] = 3.21
GAKYVIRDSGDRIDLRY [RPO21] = 3.45
LPTRGTLESLENLVVAD [COR1] = 2.89

I need protein stability index for every entry listed below, if you could help.
1. YLADDIDADSLEDIYTS [RPL5]
2. HELITNIGETAGVVQDI [RPB9]
3. PRFNRDNKVSPAAAAKK [RPS26B]
4. PAITIEKLKQFSWISVV [SIR3]
5. LLGKDNEDDALIYGISD [AAR2]

(A)
1: 2.37; 2: 3.22; 3: 2.76; 4: 1.13; 5: 2.7

Could you tell me protein stability index for each of these sequences? They are listed below.
1. VMFATNRPNTLDPALLR [RPT1]
2. ADGSSYMEQGNNKIITL [SKI6]
3. QTSVTTNFNEITNTDET [SWP82]
4. VPNSIGNIFSNIGTPSF [SNF5]
5. AGKQLEDGRTLSDYNIQ [RPS31]
6. LIEPLPTESYLQYIIHD [BRR2]
7. ARSGLRIGRIEDVTPVP [RPS14A]

(A)
[2.91, 3.02, 3.14, 2.79, 3.15, 2.49, 2.85]

====

Assay: protein stability index of a GFP-peptide fusion (yeast GPS) (PSI 1-4); higher = more stable; sorted into four equal gates, so the index is relative within each strain
Settings: ubr1∆
endpoint: protein stability index
Answers are plain numbers.

EKKDSGSSKPAFSFGAK [YJL041W/NSP1] = 3.35

Provide reported protein stability index for each item, in the same order as listed.
1. CSNPTCGAGVFLANHKD [RPS31]
2. SDVLLFQLPTTCVSMAP [RGR1]
3. KTDEVIILGTNLYDGAE [BRR2]
4. VTFIFGELKRGNESVKP [MED11]

(A)
1: 2.73; 2: 1.77; 3: 2.9; 4: 2.98

Provide protein stability index for all items below, preserving their order.
1. CNSIINKLGALKTNFET [RPB11]
2. ATANATANATANVNASA [DSN1]
3. SKVIIKFLQVMQKHGYI [RPS22A]
4. DHSWFLLIGCKLDQDDE [CSI1]

(A)
3.05
2.92
2
2.34

Your task in this section: give protein stability index for each listed record.
1. DPEKDSINATALAFGYV [SIN4]
2. QNKEIKAERVEDQKVVD [RPL6A]
3. AQYEVLANYLTSALSEL [QCR2]
4. PDELIKAGVEAISQSLR [PRE5]
5. VVERHLEDGDVVLFNRQ [RPO31]
6. LIENCKKRNMPLQSIPE [SWI1]

(A)
[1.82, 3.35, 1.68, 1.49, 3.38, 3.05]

Parameter requested: protein stability index. Apply to each item below.
1. HWPLNWYLILSIISSKT [RGR1]
2. KHGAVHLSTYLKVYKVG [RPL21A]
3. GMGGGMPDMNEMMKMMQ [SRP54]
4. DKLKDIVGQTSRTVTPA [ITC1]
5. FLSPYISTHLKTICNLL [IRR1]
6. EYQIVYYNPQAGTKITI [RGR1]

(A)
1.18
3.02
3.35
2.96
1.29
2.45

====

Assay: protein stability index of a GFP-peptide fusion (yeast GPS) (PSI 1-4); higher = more stable; sorted into four equal gates, so the index is relative within each strain
Details: san1∆
endpoint: protein stability index
Answers are plain numbers.

The examples below pair each entry with its known result.
YSIALSNVAAIFKGIGG [GAL11] = 1.38
FSFSKSEEERKSSPISN [YOR098C/NUP1] = 2.41
IAVLIELLEERFQDSNP [YCS4] = 2.66
RAQHVKKLATRPKCGDC [RPL34A] = 2.69
NSKPEKSSDSNDSNPSF [YLR335W/NUP2] = 2.25

Hello, I would appreciate it if you could give protein stability index for each entry below.
1. SIPPATIETFNEAALVV [RPB5]
2. LNLQFKAKVDDLVLGKP [YLR335W/NUP2]
3. EFLEDTSRTIVRNVKGP [RPS28A]
4. IHQNAGRLLRAMFEICL [BRR2]
5. DTQTFSVLLQQLLTPGS [YGL172W/NUP49]

(A)
[2.02, 3.34, 3.15, 2.21, 1.36]

Dear colleague, could you send me protein stability index for each of the items below? Thanks.
1. LARDTPSANNSSSIKST [RRP4]
2. DITSDQLLQRLNDMNTE [SMC3]
3. YPVRIPRLDTSKEFSAY [YJR042W/NUP85]
4. LQEKEQLYFKKKVNYKV [ISW2]
5. PVSPLDIYSDEASAQKK [RPS2]

(A)
1. 2.97
2. 3.24
3. 2.51
4. 3.26
5. 3.02

Please supply protein stability index for each of the following items, keeping them in order.
1. TSGTSSEQFNVWDWNNW [GAL11]
2. RSTDRDRVKVIECFKPG [CSL4]
3. VKNKYNVGKQLSNEIIY [PRP28]
4. DHSWFLLIGCKLDQDDE [CSI1]
5. FAISMGYLFKVSALDKC [ECM29]

(A)
1: 2.71; 2: 3.26; 3: 2.36; 4: 3.03; 5: 1.91

Would you mind listing protein stability index for each of the following sequences?
1. RRLPEDESYARAYRIIR [QCR7]
2. LRGEYNDLQSETKTKKE [SMC4]
3. LLAKRLSERKAEKAEIR [RPS6A]
4. ISFAIYSALNSTYLPKL [RRP42]

(A)
2.53
3.24
3.18
2.05

Sourced from the supplement of paper PMC9732359
